test: yeast TOR reporter LAP4-GFP retest – cell-based, third cherry pick, flow cytometry, confirmation (AID 504338);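 further: ratio to plate DMSO wells so 100% equals DMSO level rather than 0%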; details: S. cerevisiae LAP4-GFP strain, 3 h, at 10 µM, active compounds read high
OBSERVATION TYPE: GFP response vs DMSO (%)
Value expressed in %; do not type the unit.

**Q:** # lookup: GFP response vs DMSO of `Cc1cccc(N/C=C/C(=O)c2ccc(Cl)cc2)c1`
**A:** 110

**Q:** For the molecule `Cc1ccc(-c2cc(C(F)F)nc(S(C)(=O)=O)n2)cc1` , what GFP response vs DMSO is on record?
**A:** 114

**Q:** GFP response vs DMSO for `C/C(=C\C(=O)c1ccccc1)Nc1ccc(O)cc1` ?
**A:** 101

**Q:** I'd like to know its GFP response vs DMSO. The molecule in question is `COc1cccc2c(Cl)c(CCCl)c(C)nc12`
**A:** 104
